# Test system: Human immunodeficiency virus 1
# protocol.summary: Antiviral activity against wild-type HIV1 NL4-3 VSV-G pseudotyped virus infected in human SUP-T1 cells assessed as inhibition of late stage viral production pretreated with viral infected SUP-T1 cells for 48 hrs followed by reinfection in TZM-bl cells by luciferase reporter gene assay
# Type: functional, organism-based
# condition.context: Human immunodeficiency virus 1, NL4-3, SUP-T1
measured.metric: pEC50
Numbers only, as −log10 of the molar value.

Provide the reported pEC50 of each entry below, same order.
1. CC(C)CN(C[C@@H](O)[C@H](Cc1ccccc1)NC(=O)c1cc(O)cc(O)c1)S(=O)(=O)c1ccc(F)cc1
2. CC(C)CN(C[C@@H](O)[C@H](Cc1ccccc1)NC(=O)O[C@H]1CO[C@H]2OCC[C@H]21)S(=O)(=O)c1ccc(N)cc1
3. CC(C)CN(C[C@@H](O)[C@H](Cc1ccccc1)NC(=O)c1ccc(O)c(O)c1)S(=O)(=O)c1ccc(F)cc1

1. 6.13
2. 8.60
3. 6.44

###

I'd appreciate it if you could supply selectivity ratio values for the items below.
# System: HIV1 protease
# protocol.summary: Selectivity index, ratio of CC50 for HEK293T cells to IC50 for inhibition of HIV1 protease expressed in Escherichia coli
# Format: toxicity
# condition.context: human, read-out: Ratio CC50/IC50

Some solved cases for reference:
1) CC(C)CN(C[C@@H](O)[C@H](Cc1ccccc1)NC(=O)c1ccc(O)cc1O)S(=O)(=O)c1ccc(F)cc1    > 159000
2) CC(C)CN(C[C@@H](O)[C@H](Cc1ccccc1)NC(=O)c1ccc(O)c(O)c1)S(=O)(=O)c1ccc(C(F)(F)F)cc1    496000
3) CC(C)CN(C[C@@H](O)[C@H](Cc1ccccc1)NC(=O)c1cc(O)cc(O)c1)S(=O)(=O)c1ccc(C(F)(F)F)cc1    > 1.28e+06
4) COc1cc(C(=O)N[C@@H](Cc2ccccc2)[C@H](O)CN(CC(C)C)S(=O)(=O)c2ccc(F)cc2)cc(OC)c1O    > 312000
5) CC(C)CN(C[C@@H](O)[C@H](Cc1ccccc1)NC(=O)c1ccc(O)cc1O)S(=O)(=O)c1ccc([N+](=O)[O-])cc1    > 41300

Go through the items and report each one's selectivity ratio.
1. CC(C)CN(C[C@@H](O)[C@H](Cc1ccccc1)NC(=O)c1cc(O)c(O)c(O)c1)S(=O)(=O)c1ccc(C(F)(F)F)cc1
2. COc1cc(C(=O)N[C@@H](Cc2ccccc2)[C@H](O)CN(CC(C)C)S(=O)(=O)c2ccc([N+](=O)[O-])cc2)cc(OC)c1O
3. CC(C)CN(C[C@@H](O)[C@H](Cc1ccccc1)NC(=O)c1ccc(O)c(O)c1)S(=O)(=O)c1ccc([N+](=O)[O-])cc1
4. CC(C)CN(C[C@@H](O)[C@H](Cc1ccccc1)NC(=O)c1cc(O)cc(O)c1)S(=O)(=O)c1ccc([N+](=O)[O-])cc1
5. CC(C)CN(C[C@@H](O)[C@H](Cc1ccccc1)NC(=O)c1ccccc1O)S(=O)(=O)c1ccc(F)cc1
6. CC(C)CN(C[C@@H](O)[C@H](Cc1ccccc1)NC(=O)c1cc(O)c(O)c(O)c1)S(=O)(=O)c1ccc([N+](=O)[O-])cc1

> 303000
> 127000
142000
1.34e+06
> 49000
> 137000

Please look at the items below and tell me selectivity ratio for each one, in order.
1. CC(C)CN(C[C@@H](O)[C@H](Cc1ccccc1)NC(=O)c1cc(O)cc(O)c1)S(=O)(=O)c1ccc(F)cc1
2. CC(C)CN(C[C@@H](O)[C@H](Cc1ccccc1)NC(=O)c1ccc(O)c(O)c1)S(=O)(=O)c1ccc(F)cc1

["> 4.76e+06", 768000]

###

Reported IC50 values, UniProt Q72874.
Give bare numbers, in nM.

Give one value of IC50 per listed compound.
1. CC(C)CN(C[C@@H](O)[C@H](Cc1ccccc1)NC(=O)c1ccccc1O)S(=O)(=O)c1ccc(F)cc1
2. CC(C)CN(C[C@@H](O)[C@H](Cc1ccccc1)NC(=O)c1cc(O)cc(O)c1)S(=O)(=O)c1ccc(C(F)(F)F)cc1
3. CC(C)CN(C[C@@H](O)[C@H](Cc1ccccc1)NC(=O)c1ccccc1O)S(=O)(=O)c1ccc([N+](=O)[O-])cc1
4. COc1ccc(C(=O)N[C@@H](Cc2ccccc2)[C@H](O)CN(CC(C)C)S(=O)(=O)c2ccc(C(F)(F)F)cc2)c(O)c1

2.04
0.078
13.3
16.2

Return reported IC50 values for all items listed beneath this line.
1. COc1ccc(C(=O)N[C@@H](Cc2ccccc2)[C@H](O)CN(CC(C)C)S(=O)(=O)c2ccc(F)cc2)c(O)c1
2. CC(C)CN(C[C@@H](O)[C@H](Cc1ccccc1)NC(=O)c1ccccc1O)S(=O)(=O)c1ccc(C(F)(F)F)cc1
3. CC(C)CN(C[C@@H](O)[C@H](Cc1ccccc1)NC(=O)c1ccc(O)cc1O)S(=O)(=O)c1ccc(C(F)(F)F)cc1
4. CC(C)CN(C[C@@H](O)[C@H](Cc1ccccc1)NC(=O)c1ccc(O)cc1O)S(=O)(=O)c1ccc([N+](=O)[O-])cc1
5. CC(C)CN(C[C@@H](O)[C@H](Cc1ccccc1)NC(=O)c1ccc(O)c(O)c1)S(=O)(=O)c1ccc([N+](=O)[O-])cc1
6. CC(C)CN(C[C@@H](O)[C@H](Cc1ccccc1)NC(=O)c1cc(O)c(O)c(O)c1)S(=O)(=O)c1ccc([N+](=O)[O-])cc1
7. COc1cc(C(=O)N[C@@H](Cc2ccccc2)[C@H](O)CN(CC(C)C)S(=O)(=O)c2ccc([N+](=O)[O-])cc2)cc(OC)c1O

8.34
23
8.82
2.42
0.25
0.73
0.79

Respectfully, I request IC50 for each entry included below.
1. CC(C)CN(C[C@@H](O)[C@H](Cc1ccccc1)NC(=O)c1cc(O)cc(O)c1)S(=O)(=O)c1ccc([N+](=O)[O-])cc1
2. CC(C)CN(C[C@@H](O)[C@H](Cc1ccccc1)NC(=O)c1ccc(Cl)cc1O)S(=O)(=O)c1ccc(F)cc1
3. CC(C)CN(C[C@@H](O)[C@H](Cc1ccccc1)NC(=O)c1ccc(O)c(O)c1)S(=O)(=O)c1ccc(C(F)(F)F)cc1
4. COc1cc(C(=O)N[C@@H](Cc2ccccc2)[C@H](O)CN(CC(C)C)S(=O)(=O)c2ccc(F)cc2)cc(OC)c1O
5. COc1cc(O)c(C(=O)N[C@@H](Cc2ccccc2)[C@H](O)CN(CC(C)C)S(=O)(=O)c2ccc([N+](=O)[O-])cc2)cc1OC
6. COc1cc(C(=O)N[C@@H](Cc2ccccc2)[C@H](O)CN(CC(C)C)S(=O)(=O)c2ccc(C(F)(F)F)cc2)cc(OC)c1O
7. CC(C)CN(C[C@@H](O)[C@H](Cc1ccccc1)NC(=O)c1ccc(O)cc1O)S(=O)(=O)c1ccc(F)cc1
8. CC(C)CN(C[C@@H](O)[C@H](Cc1ccccc1)NC(=O)c1ccc(Cl)cc1O)S(=O)(=O)c1ccc([N+](=O)[O-])cc1

1: 0.065; 2: 6.94; 3: 0.077; 4: 0.32; 5: 13.7; 6: 8.27; 7: 0.63; 8: 9.99

###

Here's a batch of compounds along with measured IC50 for Human immunodeficiency virus type 1 protease (Human immunodeficiency virus 1).
One number for each entry, in nM.

1) COc1cc(O)c(C(=O)N[C@@H](Cc2ccccc2)[C@H](O)CN(CC(C)C)S(=O)(=O)c2ccc(C(F)(F)F)cc2)cc1OC    11.4
2) COc1ccc(C(=O)N[C@@H](Cc2ccccc2)[C@H](O)CN(CC(C)C)S(=O)(=O)c2ccc([N+](=O)[O-])cc2)c(O)c1    12.7
3) CC(C)CN(C[C@@H](O)[C@H](Cc1ccccc1)NC(=O)c1ccc(O)c(O)c1)S(=O)(=O)c1ccc(F)cc1    0.075
4) COc1cc(O)c(C(=O)N[C@@H](Cc2ccccc2)[C@H](O)CN(CC(C)C)S(=O)(=O)c2ccc(F)cc2)cc1OC    11.5
5) CC(C)CN(C[C@@H](O)[C@H](Cc1ccccc1)NC(=O)c1cc(O)cc(O)c1)S(=O)(=O)c1ccc(F)cc1    0.021

Please supply IC50 for each of the following items, keeping them in order.
1. CC(C)CN(C[C@@H](O)[C@H](Cc1ccccc1)NC(=O)c1cc(O)c(O)c(O)c1)S(=O)(=O)c1ccc(C(F)(F)F)cc1
2. CC(C)CN(C[C@@H](O)[C@H](Cc1ccccc1)NC(=O)c1ccc(Cl)cc1O)S(=O)(=O)c1ccc(C(F)(F)F)cc1

1: 0.33; 2: 6.23

###

# protocol.summary: Cytotoxicity against HEK293T cells assessed as reduction in cell viability measured after 24 hrs by CCK8 assay
# Format: toxicity, cell-based, HEK-293T
# condition.context: human
measured.metric: CC50 at 24 h

Take a look at these entries with their results.
1) CC(C)CN(C[C@@H](O)[C@H](Cc1ccccc1)NC(=O)c1cc(O)cc(O)c1)S(=O)(=O)c1ccc([N+](=O)[O-])cc1    86.9 µM
2) CC(C)CN(C[C@@H](O)[C@H](Cc1ccccc1)NC(=O)c1ccccc1O)S(=O)(=O)c1ccc(F)cc1    > 100 µM
3) CC(C)CN(C[C@@H](O)[C@H](Cc1ccccc1)NC(=O)c1ccc(O)c(O)c1)S(=O)(=O)c1ccc(C(F)(F)F)cc1    38.2 µM
4) CC(C)CN(C[C@@H](O)[C@H](Cc1ccccc1)NC(=O)c1ccc(O)c(O)c1)S(=O)(=O)c1ccc(F)cc1    57.6 µM
5) CC(C)CN(C[C@@H](O)[C@H](Cc1ccccc1)NC(=O)c1cc(O)cc(O)c1)S(=O)(=O)c1ccc(F)cc1    > 100 µM

Each molecule below has a recorded value; state its CC50 at 24 h.
1. CC(C)CN(C[C@@H](O)[C@H](Cc1ccccc1)NC(=O)c1cc(O)cc(O)c1)S(=O)(=O)c1ccc(C(F)(F)F)cc1
2. CC(C)CN(C[C@@H](O)[C@H](Cc1ccccc1)NC(=O)c1cc(O)c(O)c(O)c1)S(=O)(=O)c1ccc([N+](=O)[O-])cc1
3. COc1cc(C(=O)N[C@@H](Cc2ccccc2)[C@H](O)CN(CC(C)C)S(=O)(=O)c2ccc(F)cc2)cc(OC)c1O

1: > 100 µM; 2: > 100 µM; 3: > 100 µM

Source: ChEMBL document CHEMBL5143688
